Source of measurements: patent US20050020593A1

Target: Tubulin (Sus scrofa, UniProt P02550+P02554)
Construct: Tubulin is purified from pig brains according to published methods
Sequence (P02550 whole entry): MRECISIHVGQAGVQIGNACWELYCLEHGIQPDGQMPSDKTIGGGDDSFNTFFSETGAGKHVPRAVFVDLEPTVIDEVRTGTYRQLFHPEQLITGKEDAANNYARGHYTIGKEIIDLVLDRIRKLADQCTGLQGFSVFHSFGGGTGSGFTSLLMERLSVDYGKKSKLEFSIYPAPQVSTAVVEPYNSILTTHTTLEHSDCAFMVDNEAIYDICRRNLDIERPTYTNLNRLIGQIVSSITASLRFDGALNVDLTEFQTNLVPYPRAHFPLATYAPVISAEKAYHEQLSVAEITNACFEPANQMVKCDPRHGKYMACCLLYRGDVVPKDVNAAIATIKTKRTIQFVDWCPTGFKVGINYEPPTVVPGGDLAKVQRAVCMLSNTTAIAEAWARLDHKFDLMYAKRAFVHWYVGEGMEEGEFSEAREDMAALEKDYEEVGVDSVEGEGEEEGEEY
Sequence (P02554 whole entry): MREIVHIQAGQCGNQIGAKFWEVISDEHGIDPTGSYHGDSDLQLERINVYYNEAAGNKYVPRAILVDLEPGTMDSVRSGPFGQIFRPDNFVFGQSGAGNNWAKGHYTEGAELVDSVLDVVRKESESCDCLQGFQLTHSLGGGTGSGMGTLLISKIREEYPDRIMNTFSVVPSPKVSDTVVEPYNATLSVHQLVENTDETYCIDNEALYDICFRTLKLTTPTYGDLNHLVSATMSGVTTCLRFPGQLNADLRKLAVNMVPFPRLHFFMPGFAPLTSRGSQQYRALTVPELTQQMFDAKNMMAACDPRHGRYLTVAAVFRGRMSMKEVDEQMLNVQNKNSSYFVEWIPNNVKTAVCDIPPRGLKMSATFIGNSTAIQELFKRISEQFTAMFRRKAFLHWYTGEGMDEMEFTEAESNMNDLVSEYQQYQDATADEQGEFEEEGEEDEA
Assay: Assessment of the inhibition of tubulin polymerization (turbidimetry at 350 nm)
Conditions: tubulin purified from pig brains, 10 μM; concentration inhibiting the rate of polymerization by 50%
measured metric: IC50 (nM)

I. COc1ccc2c(c1)cc(C(=O)N1CCN(c3cccc(Cl)c3)CC1)n2-c1ccccc1
II. COc1cc(OC)cc(N2CCN(C(=O)c3c4ccccc4nn3-c3ccccc3)CC2)c1
III. O=C(c1cc2ccccc2n1-c1ccccc1)N1CCN(c2cccc(Cl)c2)CC1
IV. COc1cc(OC)cc(N2CCN(C(=O)c3cc4cc(OC)ccc4n3-c3ccccc3)CC2)c1
Ascending by IC50, please: list the compounds accordingly. Please list the labels according to the requested order.
II, III, IV, I
(II: 500 nM, III: 800 nM, IV: 1200 nM, I: 2600 nM)

====

Test system: HCT116 cells
Assay: Inhibition of proliferation of the human colon tumor line HCT116 ([14C]thymidine incorporation)
Assay type: cell-based
Details: HCT-116, 48 hours at 37° C.
measured metric: IC50 (nM)

Reference set (2 entries):
| smiles string | value reported |
| --- | --- |
| O=C(c1c2ccccc2nn1-c1ccccc1)N1CCN(c2cccc(Cl)c2)CC1 | 6 |
| COc1cc(OC)cc(N2CCN(C(=O)c3c4ccccc4nn3-c3ccccc3)CC2)c1 | 9.8 |

P. O=C(c1cc2ccccc2n1-c1ccccc1)N1CCN(c2cccc(Cl)c2)CC1
Q. O=C(c1c(-c2ccccc2)sc2ccccc12)N1CCN(c2cccc(Cl)c2)CC1
Which entry has a larger number for IC50, P or Q ? Bench note: the answer is the label of the chosen record.
Q

====

Molecular target: Tubulin (Sus scrofa, UniProt P02550+P02554)
Construct: Tubulin is purified from pig brains according to published methods
Experiment: Assessment of the inhibition of tubulin polymerization (turbidimetry at 350 nm)
Conditions: tubulin purified from pig brains, 10 μM; concentration inhibiting the rate of polymerization by 50%
measured metric: IC50 (nM)

| molecule | target or system | IC50 (nM) |
| --- | --- | --- |
| O=C(c1c(-c2ccccc2)sc2ccccc12)N1CCN(c2cccc(Cl)c2)CC1 [Example 4] | Tubulin (Sus scrofa, UniProt P02550+P02554) | 1100 |
| O=C(c1c2ccccc2nn1-c1ccccc1)N1CCN(c2cccc(Cl)c2)CC1 [Example 2] | Tubulin (Sus scrofa, UniProt P02550+P02554) | 800 |
| O=C(C1=Nc2ccc(Cl)cc2C1c1ccccc1)N1CCN(c2cccc(Cl)c2)CC1 (stereo not shown) [Example 11] | Tubulin (Sus scrofa, UniProt P02550+P02554) | 800 |
| COc1cc(OC)cc(N2CCN(C(=O)c3cc4ccccc4n3-c3ccccc3)CC2)c1 [Example 8] | Tubulin (Sus scrofa, UniProt P02550+P02554) | 1100 |
